# Organism: Homo sapiens
# assay.explanation: In vitro inhibition of ADP-induced human platelet aggregation.
# Assay type: functional
Parameter: IC50. Scope: all listed entries.
metric.name: IC50 (nM)

In [3]: df
Out[3]:
                                     smiles  metric_name  observed_value
0  CCCCNS(=O)(=O)N[C@@H](CNC(=O)c1ccc2c(c1)C(=O)N(CCC1CCNCC1)C2)C(=O)O         IC50              19
1  O=C(NC[C@H](NS(=O)(=O)c1cccs1)C(=O)O)c1ccc2c(c1)C(=O)N(CCC1CCNCC1)C2         IC50               7
2  O=C(NC[C@H](NS(=O)(=O)Cc1ccccc1)C(=O)O)c1ccc2c(c1)C(=O)N(CCC1CCNCC1)C2         IC50               4
3  O=C(NC[C@H](NS(=O)(=O)c1ccccc1)C(=O)O)c1ccc2c(c1)C(=O)N(CCC1CCNCC1)C2         IC50               8
